Recorded Bliss excess by entry
Tested on: NCCIT (Other Solid Carcinomas);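 note: after 72 h of two-drug dosing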
Experiment: Bliss excess, mean over the matrix (fraction); higher = more synergy

>  <compound>
CC(=O)c1c(C)c2cnc(Nc3ccc(N4CCNCC4)cn3)nc2n(C2CCCC2)c1=O [Palbociclib] + CC1(C)CCC(CN2CCN(c3ccc(C(=O)NS(=O)(=O)c4ccc(NCC5CCOCC5)c([N+](=O)[O-])c4)c(Oc4cnc5[nH]ccc5c4)c3)CC2)=C(c2ccc(Cl)cc2)C1 [Venetoclax] (first compound max 10 µM, 7x7, partner max 1 µM)

>  <study-target>
NCCIT (Other Solid Carcinomas);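 note: after 72 h of two-drug dosing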

>  <Bliss excess>
-0.0412

$$$$
>  <compound>
COc1cccc(OCCCN)c1-c1cc(Nc2cnc(C#N)cn2)n[nH]1 [Prexasertib] + O=C(c1cc(Cc2n[nH]c(=O)c3ccccc23)ccc1F)N1CCN(C(=O)C2CC2)CC1 [Olaparib] (first compound max 1 µM, 7x7, partner max 10 µM)

>  <study-target>
NCCIT (Other Solid Carcinomas);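 note: after 72 h of two-drug dosing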

>  <Bliss excess>
-0.103

$$$$
>  <compound>
CN(CCO)CC[C@H](CSc1ccccc1)Nc1ccc(S(=O)(=O)NC(=O)c2ccc(N3CCC([C@@H](O)c4ccccc4-c4ccc(Cl)cc4)CC3)cc2)cc1S(=O)(=O)C(F)(F)F [AZD4320] + Cc1cc2ncnn2cc1Nc1ncc2c(n1)n(C1CCOCC1)c(=O)n2C [AZD7648] (first compound max 1 µM, 7x7, partner max 10 µM)

>  <study-target>
NCCIT (Other Solid Carcinomas);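 note: after 72 h of two-drug dosing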

>  <Bliss excess>
-0.059

$$$$
>  <compound>
CN(CCO)CC[C@H](CSc1ccccc1)Nc1ccc(S(=O)(=O)NC(=O)c2ccc(N3CCC([C@@H](O)c4ccccc4-c4ccc(Cl)cc4)CC3)cc2)cc1S(=O)(=O)C(F)(F)F [AZD4320] + CN(C)CCCOc1ccc(-c2ccc3ncc4c(c3c2)n(C2CCOCC2)c(=O)n4C)cn1 [AZD0156] (first compound max 1 µM, 7x7, partner max 1 µM)

>  <study-target>
NCCIT (Other Solid Carcinomas);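 note: after 72 h of two-drug dosing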

>  <Bliss excess>
-0.0299

$$$$
>  <compound>
Cn1cnc2c(F)c(Nc3ccc(Br)cc3Cl)c(C(=O)NOCCO)cc21 [Selumetinib] + C=CCn1c(=O)c2cnc(Nc3ccc(N4CCN(C)CC4)cc3)nc2n1-c1cccc(C(C)(C)O)n1 [AZD1775] (first compound max 10 µM, partner max 1 µM)

>  <study-target>
NCCIT (Other Solid Carcinomas);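 note: after 72 h of two-drug dosing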

>  <Bliss excess>
-0.0826

$$$$
>  <compound>
NC1(C(=O)N[C@@H](CCO)c2ccc(Cl)cc2)CCN(c2ncnc3[nH]ccc23)CC1 [Capivasertib] + CC(=O)c1c(C)c2cnc(Nc3ccc(N4CCNCC4)cn3)nc2n(C2CCCC2)c1=O [Palbociclib] (first compound max 10 µM, 7x7, partner max 10 µM)

>  <study-target>
NCCIT (Other Solid Carcinomas);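 note: after 72 h of two-drug dosing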

>  <Bliss excess>
0.0183

$$$$
>  <compound>
COc1nnc2ccc(N3CCC(c4ccc(OCCN5CCN(C)C(=O)[C@H]5C)cc4)CC3)nn12 [AZD5153] + C=CCn1c(=O)c2cnc(Nc3ccc(N4CCN(C)CC4)cc3)nc2n1-c1cccc(C(C)(C)O)n1 [AZD1775] (first compound max 1 µM, partner max 1 µM)

>  <study-target>
NCCIT (Other Solid Carcinomas);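 note: after 72 h of two-drug dosing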

>  <Bliss excess>
-0.0858

$$$$
